Catalogue of compounds with associated pKi
target: WDR5 (Homo sapiens (Human), UniProt P61964); assay: TR-FRET binding assay, displacement of 10mer-Thr-FAM probe from His-tagged WDR5; details: Inhibition of WDR5 by TR-FRET assay
Reminder that pKi means the negative base-10 logarithm of the concentration expressed in mol/L.

Known results for compounds:
CCOc1ncc(C)cc1-c1cc(CNC2=NCCN2)cc(C(=O)NCc2ccc(Cl)c(Cl)c2)n1 :: 9.92
COc1cc(CNC(=O)c2cc(CNC(=N)N)cc(-c3ccnc(C)c3)c2)cc(OC)c1 :: 8.96
Cc1ccc(CNC(=O)c2cc(CNC3=NCCN3)cc(-c3cnccc3C)c2)cn1 :: 8.12
Cc1nc(F)ccc1-c1cc(CNC2=NCCN2)cc(C(=O)NCc2ccc(=O)[nH]c2)n1 :: 7.64
COc1cc(CNC(=O)c2cc(CNC3=NCCC3)cc(-c3ccc(F)cc3C)c2NC(C)=O)cc(OC)c1 :: 8.68

Proceed to the following item.
Challenge: Which pKi value belongs to Cc1cc(-c2cc(CNC(=N)N)cc(C(=O)NCc3cc(F)cc(Cl)c3)c2)ccn1 ?
Response given: 8.62

====

target: WDR5 (Homo sapiens (Human), UniProt P61964); experiment: TR-FRET binding assay, displacement of 10mer-Thr-FAM probe from His-tagged WDR5; conditions: Inhibition of WDR5 by TR-FRET assay
Catalogue of compounds with associated pKi
Reminder that pKi means the negative base-10 logarithm of the concentration expressed in mol/L.

COc1cc(CNC(=O)c2cc(CNC3=NCCN3)cc(-c3ccc(F)nc3C)n2)cc(OC)c1 :: 9.14

Challenge: Which pKi value belongs to COc1cc(CNC(=O)c2cc(CNC3=NCCC3)cc(-c3cc(C)c(F)cc3C)c2)cc(OC)c1 ?
Response given: 9.68

Challenge: Would you mind doing Cc1cc(C(C)NC(=O)c2cc(CNC3=NCCC3)cc(-c3ccc(F)nc3C)c2)ncc1Cl (stereo not shown) as well?
Response given: 9.51

====

target: WDR5 (Homo sapiens (Human), UniProt P61964); assay: TR-FRET binding assay, displacement of 10mer-Thr-FAM probe from His-tagged WDR5
measuredProperty: log10(Ki) (log10 of the value in nM)
log10 Ki, nM

Known results for compounds:
Cc1cc(-c2cc(CNC3=NCCN3)cc(C(=O)NCc3ccc(Cl)c(C)c3)c2)ccn1 :: -0.93
Cc1cc(-c2cc(CNC3=NCCN3)cc(C(=O)NCc3cc(Cl)cc(Cl)c3)c2)ccn1 :: -1.48
COc1cc(CNC(=O)c2cc(CNC3=NCCN3)cc(-c3ccnc(C)c3)c2)cc(OC)c1 :: -0.20
O=C(NCc1ccc(Cl)c(Cl)c1)c1cc(F)c(F)c(CNC2=NCCN2)c1 :: -0.35
Cc1cc(F)ccc1-c1cc(CNC2=NCCC2)cc(C(=O)NCc2ccc(Cl)c(Cl)c2)n1 :: -0.88
COc1ccnc(CNC(=O)c2cc(CNC3=NCCN3)cc(-c3ccc(F)cc3C)c2)c1 :: -0.64
Cc1ccncc1-c1cc(CNC2=NCCN2)cc(C(=O)NCc2cc(Cl)cc(Cl)c2)c1 :: -0.70
Cc1ccncc1-c1cc(CNC2=NCCN2)cc(C(=O)NC(C2CC2)C2CC2)c1 :: -0.12

Challenge: Which log10(Ki) value belongs to Cc1cc(CNC(=O)c2ccc(F)c(CNC3=NCCN3)c2)ccc1Cl ?
Response given: -0.72

Challenge: Would you mind doing COc1cc(CNC(=O)c2cc(CNC3=NCCN3)cc(-c3ccc(F)nc3C)c2)cc(OC)c1 as well?
Response given: -0.88

Challenge: Would you mind doing Cc1cc(-c2cc(CNC3=NCCN3)cc(C(=O)NCc3cc(Cl)ccn3)c2)cc(C)n1 as well?
Response given: -1.06

Challenge: Would you mind doing COc1ccc(C(=O)NCc2ccc(Cl)c(Cl)c2)cc1CNC1=NCCN1 as well?
Response given: -0.21
